Molecular target: Y2 receptors (Homo sapiens, UniProt P49146)
Construct: endogenous in cells; host or cells: KAN-Ts cells (membranes)
Sequence (P49146 whole entry): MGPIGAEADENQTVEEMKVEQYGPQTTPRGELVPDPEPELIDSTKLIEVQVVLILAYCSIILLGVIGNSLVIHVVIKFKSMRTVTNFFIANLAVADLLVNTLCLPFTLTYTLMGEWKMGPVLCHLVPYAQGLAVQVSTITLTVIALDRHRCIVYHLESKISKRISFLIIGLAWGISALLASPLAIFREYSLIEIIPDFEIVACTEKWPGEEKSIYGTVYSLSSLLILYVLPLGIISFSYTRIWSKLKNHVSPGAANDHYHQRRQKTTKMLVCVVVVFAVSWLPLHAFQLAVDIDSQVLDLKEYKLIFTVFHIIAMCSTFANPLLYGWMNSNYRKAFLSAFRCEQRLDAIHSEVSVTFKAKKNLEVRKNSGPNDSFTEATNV
Experiment: Radioligand binding assay ([125I]PYY, KAN-Ts cell membranes)
Conditions: Table 1, [125I]PYY 80 pM, average of results, read-out: IC50
Here, each record is paired with measured pIC50 data.
Scale: pIC50 equals -log10([C]), with [C] in mol/L.

These recorded examples may help you get a feel for the data.
>>> df
                                   compound  numeric_value
0  CCNC(=O)C(c1ccccc1)C1CCN(c2c(F)cc(NC(=O)C(CC)CC)cc2F)CC1 (centres unmarked) [Example 142]           7.12
1  COC(=O)C(c1ccccc1)N1CCN(c2ccc(NC(=O)CCC(C)C)cc2F)CC1 (centres unmarked) [Example 78]           6.64
2  CCC(CC)C(=O)Nc1ccc(N2CCN(C(C(=O)N(CC)CC)c3cccc(F)c3)CC2)c(F)c1 (centres unmarked) [Example 35]           7.48

What does the record list as pIC50 for CCNC(=O)C(c1ccccc1)N1CCN(c2ccc(NC(=O)C(CC3CCCN3)C(F)(F)F)cc2F)CC1 (centres unmarked) [Example 93] ? 5.30

Now consider CCNC(=O)C(c1ccccc1)N1CCN(c2ccc(NC(=O)CCN(CC)CC)cc2F)CC1 (centres unmarked) [Example 91] and answer again. 5.00

---

Target: Y2 receptors (Homo sapiens)
Construct: endogenous in cells; host or cells: KAN-Ts cells (membranes)
Test: Radioligand binding assay ([125I]PYY, KAN-Ts cell membranes)
Settings: Table 2, [125I]PYY 80 pM, average of results, read-out: IC50
Readout: IC50 (nM)
Field: numeric (nM). Do not append units.

Compound	IC50 / nM
CCC(CC)C(=O)Nc1ccc(N2CCN(C(C(=O)N3CCC(F)(F)C3)c3cccc(F)c3)CC2)c(F)c1 (stereo not drawn)	148
CCC(CC)C(=O)Nc1ccc(N2CCN(C(C(=O)N(CC)CC)c3ccc(O)cc3)CC2)c(F)c1 (stereo not drawn)	104
CCC(CC)C(=O)Nc1ccc(N2CCC([C@H](C(=O)N(CC)CC)c3ccccc3)CC2)c(F)c1	100
CCN(CC)C(=O)C(c1ccccc1)N1CCN(c2ccc(CC(=O)NCc3ccccc3)cc2F)CC1 (stereo not drawn)	1900
CCN(CC)C(=O)C(c1ccccc1)N1CCN(c2ccc(CC(=O)N3C(C)CCC3C)cc2F)CC1 (stereo not drawn)	540
CCN(CC)C(=O)C(c1ccccc1)N1CCN(c2ccc(NC(=O)C3CCCC3)cc2C#N)CC1 (stereo not drawn)	48
CCN(CC)C(=O)C(c1ccccc1)N1CCN(c2ccc(NC(=O)C3CCCC3)c(F)c2C#N)CC1 (stereo not drawn)	92
CCN(CC)C(=O)C(c1ccccc1)N1CCN(c2ccc(CNC(=O)C(C)CC(F)(F)F)cc2F)CC1 (stereo not drawn)	2200

What does the record list as IC50 for CCC(CC)C(=O)Nc1ccc(N2CCN(C(C(=O)N(CC)CC)c3ccccc3)CC2)c(F)c1F (stereo not drawn) ? 270

Now consider CCN(CC)C(=O)C(c1ccccc1)N1CCN(c2ccc(NC(=O)C3CC4CCC3C4)cc2F)CC1 (stereo not drawn) and answer again. 120

---

Biological target: Y2 receptors (Homo sapiens)
Construct: endogenous in cells; host or cells: KAN-Ts cells (membranes)
Experiment: Radioligand binding assay ([125I]PYY, KAN-Ts cell membranes)
Details: Table 1, [125I]PYY 80 pM, average of results, read-out: IC50
Readout: pIC50
Scale: pIC50 equals -log10([C]), with [C] in mol/L.

These recorded examples may help you get a feel for the data.
                                   compound  numeric_value
0  CCC(CC)C(=O)Nc1ccc(N2CCN(C(C(=O)N3CCC(F)(F)CC3)c3ccc(F)cc3)CC2)c(F)c1 (centres unmarked)           6.62
1  COC(=O)C(c1ccccc1)N1CCN(c2ccc(NC(=O)CCc3ccccc3)cc2)CC1 (centres unmarked)           5.47

Write down the reported pIC50 of O=C(Nc1ccc(N2CCN(C(C(=O)N3CCC(F)(F)C3)c3ccccc3)CC2)c(F)c1)[C@H]1CCOC1 (some centres unmarked) , test system: Y2 receptors (Homo sapiens). 6.85

Now consider CCC(CC)C(=O)Nc1ccc(N2CCN(Cc3ccccc3C(=O)N3CCOCC3)CC2)c(F)c1 and answer again. 5.72

Now consider CCC(C)C(=O)Nc1ccc(N2CCC(C(C(=O)OC)c3ccccc3)CC2)cc1 (centres unmarked) and answer again. 5.62

All values here come from patent US8183239B2.
